Listed compounds paired with reported IC50
Molecular target: hSirt5 (Homo sapiens, UniProt Q9NXA8)
Construct: comprised amino acids 37–310 (C-terminal region); His-tag (N); purchased Reaction Biology Corporation (Malvern, PA, USA); host or cells: Escherichia coli
Sequence (Q9NXA8 37-310): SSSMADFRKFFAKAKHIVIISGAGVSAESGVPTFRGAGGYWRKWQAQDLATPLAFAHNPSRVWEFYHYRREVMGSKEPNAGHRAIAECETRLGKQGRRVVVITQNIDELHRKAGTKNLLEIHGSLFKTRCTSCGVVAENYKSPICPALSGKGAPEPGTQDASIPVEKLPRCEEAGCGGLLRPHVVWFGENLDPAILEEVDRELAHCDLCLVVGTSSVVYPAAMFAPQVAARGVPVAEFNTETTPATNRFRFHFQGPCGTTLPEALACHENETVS
Assay: fluorescence-based sirtuin 5 assay (Reaction Biology) with substrate Ac-Lys-succ-AMC and NAD+
Format: biochemical
Conditions: recombinant sirtuin 5 aa 37-310, 50 µM Ac-Lys-succ-AMC, 10-dose 3-fold dilution, mean of three measurements; read-out: IC50 (hSirt5) [µM] ± SD
Numbers only; they are read as µM.

>  <Compound>
CC1(C)OC(=O)c2cc(-n3cc(-c4ccc(C5=N[C@@H](CC(=O)O)CB(O)O5)cc4)nn3)ccc2O1

>  <Assayed System>
hSirt5 (Homo sapiens, UniProt Q9NXA8)

>  <IC50 (µM)>
137

$$$$
>  <Compound>
N#CC[C@H](CC(=O)O)NC(=O)c1ccc(-c2cc(-c3ccc(O)c(C(=O)O)c3)no2)cc1

>  <Assayed System>
hSirt5 (Homo sapiens, UniProt Q9NXA8)

>  <IC50 (µM)>
97

$$$$
>  <Compound>
N#CC[C@@H](CC(=O)O)NC(=O)c1ccc(-c2cc(-c3ccc(O)c(C(=O)O)c3)no2)cc1

>  <Assayed System>
hSirt5 (Homo sapiens, UniProt Q9NXA8)

>  <IC50 (µM)>
65

$$$$
>  <Compound>
CC1(C)OC(=O)c2cc(-c3cc(-c4ccc(C5=N[C@H](CC(=O)O)CB(O)O5)cc4)on3)ccc2O1

>  <Assayed System>
hSirt5 (Homo sapiens, UniProt Q9NXA8)

>  <IC50 (µM)>
139

$$$$

Ask | Given O=CCC(CC(=O)O)NC(=O)c1ccc(-c2cn(-c3ccc(O)c(C(=O)O)c3)nn2)cc1 (centres unmarked) , state its recorded IC50.
Reply | 60
